Catalogue of binders with associated IC50
target: T1, hTSLP-His (human, UniProt Q969D9 29-159, limits assumed); assay: competition ELISA, 7 nM TSLP-His pre-incubated with antibody; competitor Tezepelumab coated
T1 construct: bought; also called hTSLP (ACROBiosystems TSP-H52Hb); not shown: His tag
Return type: number; implicit unit nM.

{"columns": ["binder", "IC50 [nM]"],
 "data": [
  ["BDG38.080 (antibody, V domains shown, IgG1) VH: QMQLVESGGGVVQPGRSLRLSCAASGFAFRTYGMHWVRQAPGKGLEWVAVIWYDGSATHYADSVKGRFTITRDNSKNTLNLQMNSLRAEDTAVYYCVRAPQWYLSAEAFDLWGQGTMVTVSS VL: SYVLTQPPSVSVAPGETATITCGGNLIGAYLVHWYQQKPGQAPVLVIYDDSDRPDRIPERFSGSNSGNTATLTISRVEAGDEADYYCQVWDHNTNHMVFGGGTKLTVL", 3.27],
  ["BDG38.074 (antibody, V domains shown, also called BDG38.74) VH: QMQLVESGGGVVQPGRSLRLSCAASGFAFRTYGMHWVRQAPGKGLEWVAVIWDDGSNTHYADSVKGRFTITRDNSKNTLNLQMNSLRAEDTAVYYCVRAPQWYLTAEAFDLWGQGTMVTVSS VL: SYVLTQPPSVSVAPGQTATITCGGNMIGAYLVHWYQQKPGQAPLLVVYDDVDRPNRIPERFSGSNSGNTATLTISRVEAGDEADYYCQVWDHNTDKMVFGGGTKLTVL", 3.66],
  ["BDG38.096 (antibody, V domains shown, IgG1) VH: QMQLVESGGGVVQPGRSLRLSCAASGFEFRTYGMHWVRQAPGKGLEWVAVIWDDGSNTHYADSVKGRFTITRDNSKNTLNLQMNSLRVEDTAVYYCVRAPQWYLTAEAFDLWGQGTMVTVSS VL: SYILTQPPSVSVAPGETARITCGGNLIGARLVHWYQQKPGQAPVLVIYDDSDRPSRIPERFSGSNIGNTATLTISRVEEGDEADYYCQVWDYSSDSMVFGGGTKLTVL", 5.87],
  ["BDG38.078 (antibody, V domains shown, IgG1) VH: QMQLVESGGGVVQPGRSLRLSCAASGFEFRTYGMHWVRQAPGKGLEWLGVIWYDGSNTHYADSVKGRFTITRDNSKNTLNLQMNSLRVEDTAVYYCVRAPQWYLTAEAFDLWGQGTMVTVSS VL: SYILTQPPSVSVAPGETATITCGGNLIGARLVHWYQQKPGQAPVLVIYDDSDRPSRIPERFSGSNIGNTATLTIERVEAGDEADYYCQVWDYYSDHMVFGGGTKLTVL", 4.3]
]}

Now for another entry.
input: Write down IC50 measured for item BDG38.140 (antibody, V domains shown, IgG1) VH: QMQLVESGGGVVQPGRSLTLSCAASGFEFRTYGMHWVRQAPGKGLEWVGVIWDDGSNTHYADSVKGRFTITRDNSKNTLNLQMNSLRVEDTAVYYCARAPQWYLTAEAFDLWGQGTMVTVSS VL: SYILTQPPSVSVAPGETATITCGGNLIGAKLVHWYQQKPGQAPVLVIYDDSDRPSRIPERFSGSNIGNTATLTIEDVEAGDEADYYCQVWDYSANHMVFGGGTKLTVL
output: 5.63
